Task for the reader: assign each of the following compounds its reported IC50.
# TARGET OR SYSTEM: class B enzyme CcrA (Bacteroides fragilis, UniProt P25910)
# Sequence (P25910 19-249): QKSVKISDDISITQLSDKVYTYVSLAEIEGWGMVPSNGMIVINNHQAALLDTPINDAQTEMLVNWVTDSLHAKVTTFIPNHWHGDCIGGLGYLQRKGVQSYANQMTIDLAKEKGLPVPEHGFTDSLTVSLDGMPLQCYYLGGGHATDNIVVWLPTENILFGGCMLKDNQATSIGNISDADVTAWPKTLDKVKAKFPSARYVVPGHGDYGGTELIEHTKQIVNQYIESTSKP
# PROCEDURE SUMMARY: IC50 determination, β-lactamase inhibition (nitrocefin, spectrophotometric)
# Format: biochemical
# SETTINGS: enzyme 1.2 nM; 10 minutes preincubation at 25° C.; nitrocefin 50 μg/ml; pH 7.0; read-out: IC50 (nM) Class B Ccr
Numbers only, in nM.

{"COMPOUND": "O=C(O)C1=CS[C@@H]2/C(=C\\c3cc4c(s3)CCN(C(=O)Cc3ccccc3)C4)C(=O)N12", "IC50 (nM)": 140}

For every listed record, write down its IC50.
1. O=C([O-])C1=CS[C@@H]2/C(=C\c3cc4n(n3)CSC4)C(=O)N12.[Na+] [Example 12, sodium salt]
2. CCOC(=O)N1CCc2sc(C=C3C(=O)N4C(C(=O)O)=CSC34)cc2C1 (centres unmarked)
3. O=C(O)C1=CS[C@@H]2/C(=C\c3cnc4n3CCSC4)C(=O)N12
4. O=C([O-])C1=CS[C@@H]2/C(=C\c3cc4n(n3)CCCC4)C(=O)N12.[Na+] [Example 9, sodium salt]

1. 110
2. 120
3. 7.8
4. 62

###

# TARGET OR SYSTEM: class A β-lactamase Imi-1 (Enterobacter cloacae, UniProt Q46991)
# Sequence (Q46991 28-292): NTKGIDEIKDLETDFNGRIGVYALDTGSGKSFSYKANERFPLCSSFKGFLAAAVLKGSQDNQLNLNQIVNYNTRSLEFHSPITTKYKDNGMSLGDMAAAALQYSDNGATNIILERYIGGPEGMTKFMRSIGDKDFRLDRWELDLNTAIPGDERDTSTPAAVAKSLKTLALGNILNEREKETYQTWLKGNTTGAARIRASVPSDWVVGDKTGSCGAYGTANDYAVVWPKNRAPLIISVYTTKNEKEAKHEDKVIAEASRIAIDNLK
# PROCEDURE SUMMARY: IC50 determination, β-lactamase inhibition (nitrocefin, spectrophotometric)
# Type: biochemical
Where a name gives a salt, the structure may show the parent alone.
QUANTITY KIND: pIC50
Give bare numbers, as −log10 of the molar value.

Examples with answers:
{"COMPOUND": "O=C([O-])C1=CS[C@@H]2/C(=C\\c3cc4n(n3)CCCC4)C(=O)N12.[Na+] [Example 9, sodium salt]", "TARGET OR SYSTEM": "class A β-lactamase Imi-1 (Enterobacter cloacae, UniProt Q46991)", "pIC50": 7.05}
{"COMPOUND": "O=C(O)C1=CS[C@@H]2/C(=C\\c3cn4c(n3)COCC4)C(=O)N12 [Example 7, sodium salt]", "TARGET OR SYSTEM": "class A β-lactamase Imi-1 (Enterobacter cloacae, UniProt Q46991)", "pIC50": 8.11}
{"COMPOUND": "O=C(O)C1=CS[C@@H]2/C(=C\\c3cn4c(n3)CNCC4)C(=O)N12 [Example 3, sodium salt]", "TARGET OR SYSTEM": "class A β-lactamase Imi-1 (Enterobacter cloacae, UniProt Q46991)", "pIC50": 7.55}

Now for the compound whose pIC50 we want.
# input compound: O=C(O)C1=CS[C@@H]2/C(=C\c3cc4n(n3)CCOC4)C(=O)N12 ; wanted: its pIC50
6.64

###

# TARGET OR SYSTEM: class A β-lactamase TEM-1 (Escherichia coli)
# Sequence (P62593 24-286 limits assumed): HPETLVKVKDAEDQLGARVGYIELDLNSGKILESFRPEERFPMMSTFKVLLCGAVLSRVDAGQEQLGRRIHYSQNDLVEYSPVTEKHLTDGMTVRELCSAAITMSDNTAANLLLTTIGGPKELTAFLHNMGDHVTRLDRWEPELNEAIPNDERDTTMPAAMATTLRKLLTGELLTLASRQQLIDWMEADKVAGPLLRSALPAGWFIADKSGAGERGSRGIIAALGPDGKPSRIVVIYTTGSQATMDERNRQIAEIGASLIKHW
# PROCEDURE SUMMARY: IC50 determination, β-lactamase inhibition (nitrocefin, spectrophotometric)
# Type: biochemical, E. coli
# SETTINGS: enzyme 4.3 nM; 10 minutes preincubation at 25° C.; nitrocefin 50 μg/ml; pH 7.0
Where a name gives a salt, the structure may show the parent alone.
Task for the reader: assign each of the following compounds its reported IC50.
Give bare numbers, in nM.

Examples with answers:
{"COMPOUND": "O=C([O-])C1=CS[C@@H]2/C(=C\\c3cc4n(n3)CSC4)C(=O)N12.[Na+] [Example 12, sodium salt]", "UNIT INFO": "nM", "IC50": 1.4}
{"COMPOUND": "O=C(O)C1=CS[C@@H]2/C(=C\\c3cnc4n3CCSC4)C(=O)N12 [Example 30]", "UNIT INFO": "nM", "IC50": 2.9}

Now for the compound whose IC50 we want.
Write down the reported IC50 of CN1CCn2cc(/C=C3/C(=O)N4C(C(=O)O)=CS[C@H]34)nc2C1 [Example 2, sodium salt] , test system: class A β-lactamase TEM-1 (Escherichia coli).
4.4
